System: UniProt:Q08881
Sequence (Q08881 whole entry): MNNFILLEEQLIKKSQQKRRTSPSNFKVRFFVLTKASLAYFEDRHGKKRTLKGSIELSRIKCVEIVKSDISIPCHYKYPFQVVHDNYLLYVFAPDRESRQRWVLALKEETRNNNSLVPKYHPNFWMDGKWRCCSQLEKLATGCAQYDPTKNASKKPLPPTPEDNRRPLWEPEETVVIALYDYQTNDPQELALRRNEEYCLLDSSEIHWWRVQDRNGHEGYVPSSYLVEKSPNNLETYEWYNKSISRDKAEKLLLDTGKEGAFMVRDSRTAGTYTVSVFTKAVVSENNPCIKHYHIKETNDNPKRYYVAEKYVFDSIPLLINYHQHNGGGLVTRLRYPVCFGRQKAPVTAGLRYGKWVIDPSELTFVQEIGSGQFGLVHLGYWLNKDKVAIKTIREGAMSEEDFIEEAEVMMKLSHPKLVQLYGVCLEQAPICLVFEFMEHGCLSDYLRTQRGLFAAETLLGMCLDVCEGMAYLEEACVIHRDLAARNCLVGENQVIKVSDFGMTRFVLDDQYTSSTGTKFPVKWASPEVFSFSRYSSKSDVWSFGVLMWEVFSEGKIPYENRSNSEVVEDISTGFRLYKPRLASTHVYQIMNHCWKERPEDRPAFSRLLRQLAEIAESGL
Assay Summary: ITK degradation HiBiT assay
Assay type: cell-based
Design: expressed in transfected cells; host or cells: Molt4 (ATCC CRL-1552), monoclonal clone 1C10, engineered to carry the HiBiT tag
Condition: MOLT-4, C-terminal HiBiT-tagged Molt4 cells, 4 hrs
Measure Name: Dmax (%)

Compound	Unit Spec	Dmax
C[C@@]12Cc3[nH]nc(C(=O)Nc4cnn(C5CCN(CC6CCN(c7ccc(N8CCC(=O)NC8=O)cn7)CC6)CC5)c4)c3C[C@@H]1C2(F)F [Compound 113]	%	80
C[C@@]12Cc3[nH]nc(C(=O)Nc4ccc(C5CCN(CC6CCN(c7ccc(C8CCC(=O)NC8=O)cn7)CC6)CC5)nc4)c3C[C@@H]1C2(F)F (stereo partly shown) [Compound 111]	%	90
CN(CC1CCN(C(=O)c2ccc3cc(-c4n[nH]c5c4CCC(C)(C)C5)[nH]c3c2)CC1)C1CCN(c2ccc(C3CCC(=O)NC3=O)cn2)CC1 (stereo not shown) [Compound 63]	%	80
C[C@@]12Cc3[nH]nc(-c4cc5cc(C(=O)N6CCN(C[C@H]7CCN(c8ccc(C9CCC(=O)NC9=O)cc8)C7)CC6)ccc5[nH]4)c3C[C@@H]1C2(F)F (stereo partly shown) [Compound 147]	%	81
C[C@@]12Cc3[nH]nc(C(=O)Nc4cnn(C5CCN(CC6CCN(c7ncc(C8CCC(=O)NC8=O)cn7)CC6)CC5)c4)c3C[C@@H]1C2(F)F (mixture of isomers) [Compound 115]	%	84
Cn1c(=O)n(C2CCC(=O)NC2=O)c2cccc(N3CCC(CN4CC(n5cc(NC(=O)c6n[nH]c7c6C[C@@H]6C(F)(F)[C@]6(C)C7)cn5)C4)CC3)c21 (stereo partly shown) [Compound 57]	%	90
C[C@@H]1CN(C(=O)c2ccc3cc(-c4n[nH]c5c4C[C@@H]4C(F)(F)[C@]4(C)C5)[nH]c3c2)CCN1CC1CCN(c2ccc(C3CCC(=O)NC3=O)cc2F)CC1 (stereo partly shown) [Compound 161]	%	85
CC1(C)CCc2c(-c3cc4ccc(C(=O)N5CCN(CC6CCN(c7ncc(C8CCC(=O)NC8=O)cn7)CC6)CC5)cc4[nH]3)n[nH]c2C1 (stereo not shown) [Compound 187]	%	70
CC1(C)CCc2c(-c3cc4ccc(C(=O)N5CCN(CC6CCN(c7ccc(C8CCC(=O)NC8=O)cc7F)CC6)CC5)cc4[nH]3)n[nH]c2C1 (stereo not shown) [Compound 222]	%	75
C[C@@H]1CN(CC2CCN(c3ccc(C4CCC(=O)NC4=O)cn3)CC2)CCN1C(=O)c1ccc2cc(-c3n[nH]c4c3CCC(C)(C)C4)[nH]c2c1 (stereo partly shown) [Compound 132]	%	82
